Target: T1, CRBN, Q96SW2;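 further: pooled lentiviral library of zinc finger degron-EGFP fusions in mCherry-positive Jurkat cells, FACS-sorted after compound exposure, with degron abundance counted by next-generation sequencing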
T1 chain: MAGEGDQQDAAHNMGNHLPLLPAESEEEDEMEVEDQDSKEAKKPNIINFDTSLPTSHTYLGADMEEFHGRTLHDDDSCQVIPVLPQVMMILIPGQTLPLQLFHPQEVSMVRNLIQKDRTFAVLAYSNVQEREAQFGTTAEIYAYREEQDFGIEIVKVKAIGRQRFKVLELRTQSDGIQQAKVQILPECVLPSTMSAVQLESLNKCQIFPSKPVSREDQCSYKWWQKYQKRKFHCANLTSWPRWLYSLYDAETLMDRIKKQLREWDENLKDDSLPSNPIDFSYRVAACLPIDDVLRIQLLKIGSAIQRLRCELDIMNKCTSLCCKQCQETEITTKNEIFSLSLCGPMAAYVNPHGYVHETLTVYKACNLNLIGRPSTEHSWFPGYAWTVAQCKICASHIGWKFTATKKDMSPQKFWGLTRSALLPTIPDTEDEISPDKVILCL
Experiment: log2 fold change of degron read counts, EGFP-low vs EGFP+ sorted cells (limma voom), compound-induced degradation; higher = more compound-induced degradation of the degron-EGFP fusion; degrons are variants of IKZF1/3 zinc finger 2; compound dose not given here
Conditions: Jurkat; 18 h; compound: compound 19 (5-tert-butyl-thalidomide)
In all, about 8,300 sequences were measured (“log2 fold change of degron read counts, EGFP-low vs EGFP+ sorted cells (limma voom), compound-induced degradation”: median about -1.1, highest 2% from about 3.2 on). Shown is part of a subset that was picked to be rich in the highest values.
// Not satisfied strictly below -0.7 in log2 fold change of degron read counts; Satisfied otherwise

residues="FQCPVCGAHFTQKGNLLRHIKL [46F_47Q_49P_50V_52G_53A_54H_55F_67L_, Q9UKT9]" assigned_category=Satisfied
residues="FHCDVCGAQFTQKGNLLRHIKL [46F_47H_49D_50V_52G_53A_54Q_55F_67L_, Q9UKT9]" assigned_category=Satisfied
residues="FECDVCGAQFTQKGNLLRHIKL [46F_47E_49D_50V_52G_53A_54Q_55F_67L_, Q9UKT9]" assigned_category="Not satisfied"
residues="FKCEICGHFFTQKGNLLRHIKL [46F_47K_49E_50I_52G_53H_54F_55F_67L_, Q9UKT9]" assigned_category="Not satisfied"
residues="FWCDVCGAQFTQKGNLLRHIKL [46F_47W_49D_50V_52G_53A_54Q_55F_67L_, Q9UKT9]" assigned_category=Satisfied
residues="FYCDVCGAQFTQKGNLLRHIKL [46F_47Y_49D_50V_52G_53A_54Q_55F_67L_, Q9UKT9]" assigned_category=Satisfied
